This section presents pIC50 values reported for 5-HT1D receptor (Bos taurus) in the literature.
pIC50: −log10 of the molar value.
# pIC50 >= 8 gives 1.0, anything below gives 0.0

Study these solved cases before continuing.
CCCN(CCC)[C@H]1Cc2c[nH]c3ccc(-c4nnco4)c(c23)C1    0.0
COc1cncnc1N1CCN(CCCc2c[nH]c3ccc(CC(=O)NCc4ccccc4)cc23)CC1    1.0
CCCN(CCC)[C@H]1Cc2c[nH]c3ccc(-c4cccnc4)c(c23)C1    0.0
CCCN(CCC)[C@H]1Cc2c[nH]c3ccc(C(=O)c4ccccc4)c(c23)C1    1.0
CCCN(CCC)[C@H]1Cc2c[nH]c3ccc(-c4ncco4)c(c23)C1    0.0

Field: next molecule
(Q) Does the molecule `CCCN(CCC)[C@@H]1Cc2c[nH]c3ccc(-c4ccon4)c(c23)C1` have recorded pIC50 that is 8 or more?
(A) 0.0
